# method: qHTS assay for small molecule agonists of the antioxidant response element (ARE) signaling pathway (AID 743202)
# details: HepG2 ARE-bla reporter, beta-lactamase FRET, 16 h; series mostly up to 73.3 µM
Inconclusive results are not listed. Calls of active or inactive are those of the source. The call rests on the fitted dose curve; in most records, active means well fitted activation curve with a large enough effect in the signal ratio in the repeat runs (not every such curve was filed as active); inconclusive means weak or mixed curves, or effect the other way; inactive means no such curve, though single readings can be large or run the other way; the % refers to the signal ratio.
Just give me one of these, please: active, inactive

Worked set:
{"columns": ["compound", "class_assignment"],
 "data": [
  ["O=c1c2ccccc2oc2ccccc12", "inactive"],
  ["NC(=O)c1ccccc1C(N)=O", "active"],
  ["CCCC(=O)OCc1ccccc1", "inactive"],
  ["CC(C(=O)O)c1ccc2c(c1)Cc1cccnc1O2 (centres undefined)", "inactive"]
]}

API: the following record is the query input.
[Q] Write down the call the test reported for this compound. Item: [O-][n+]1ccc(Cl)cc1
[A] inactive

* * *

# tested_target: Bile acid receptor (Homo sapiens)
# method: qHTS assay to identify small molecule antagonists of the farnesoid-X-receptor (FXR) signaling pathway (AID 743217)
# details: HEK293T FXR-UAS-bla, beta-lactamase ratio, CDCA-stimulated, 16 h; series mostly up to 62.6 µM
Records with an inconclusive call do not appear. The source made the active and inactive calls. Calls come from the whole dose curve; as a rule, active = well fitted inhibition curve with a large enough effect in the signal ratio in the repeat runs (not every such curve was filed as active); inconclusive = weak or mixed curves, or effect the other way; inactive = no such curve, though single readings can be large or run the other way; the % refers to the signal ratio.
attribute_measured: outcome

Example entries and their recorded answers appear below.
{"columns": ["compound", "outcome"],
 "data": [
  ["CCCCOC(=O)C(C)Oc1ccc(Oc2ccc(C(F)(F)F)cn2)cc1 (stereo not drawn)", "inactive"],
  ["c1ccc(-c2ccc(-c3ccccc3)cc2)cc1", "inactive"],
  ["COc1ccc(CN(CCN(C)C)c2ncccn2)cc1", "inactive"],
  ["CCCCCCCCCCCCCCCCN", "inactive"],
  ["Cc1ccc(NC=O)c(C)c1", "inactive"],
  ["O=C(O)c1cc(C(=O)O)c(C(=O)O)cc1C(=O)O", "inactive"],
  ["CCCCCCCCNC", "inactive"],
  ["C=CC(=O)NC(C)(C)C", "inactive"]
]}

[Q] Please list outcome recorded for the compound CCCCCO
[A] inactive

* * *

# method: qHTS assay to test for compound auto fluorescence at 535 nm (green) in HepG2 cells (AID 720675)
# details: green autofluorescence 485/535 nm, 1 h; series mostly up to 91.3 µM
Activity calls are given as the source filed them. Calls come from the whole dose curve; as a rule, active = well fitted curve in the direction sought with a large enough effect in the repeat runs; inconclusive = weak or mixed curves; inactive = flat fitted curve, though single readings scatter.
attribute_measured: fluorescence, % of fluorescein control

// below: answered compounds
{"columns": ["compound_structure_string", "fluorescence, % of fluorescein control"],
 "data": [
  ["CC(=O)Nc1cccc(N)c1", "inactive"],
  ["CCCCCCCCCCCCN1CCOCC1", "inactive"],
  ["C=C[Si](OCC)(OCC)OCC", "inactive"],
  ["O=C(Cl)c1ccc(F)c(Cl)c1", "inactive"]
]}

[Q] Annotate the compound C=C(C)C(=O)OCCCCCCCCCCOC(=O)C(=C)C with its measured fluorescence, % of fluorescein control.
[A] inactive

[Q] Identify measured fluorescence, % of fluorescein control corresponding to Cc1cc(N)n(-c2ccccc2)n1
[A] inactive

[Q] Annotate the compound O=[N+]([O-])c1ccc(Cl)cc1Cl with its measured fluorescence, % of fluorescein control.
[A] inactive

[Q] Determine its reported fluorescence, % of fluorescein control: CC(C)CCCCCOC(=O)CS
[A] inactive

[Q] Please list fluorescence, % of fluorescein control recorded for the compound O=C1c2ccccc2C(=O)C1c1ccc2ccccc2n1
[A] inactive
